Experiment: Inhibition of Her2 sheddase activity in BT474 cell line
endpoint-name: IC50 (nM)
Express your answer in nM, writing the number without its unit.

Field: example entries. Status: answers known.
[
  {
    "molecule": "O=C(NO)[C@H]1CC2(CC2)CN[C@@H]1C(=O)N1CCN2c3ccccc3CC2C1 (stereo partly drawn)",
    "IC50, nM": 280
  },
  {
    "molecule": "O=C(NO)[C@H]1CCCN[C@@H]1C(=O)N1CC[C@H](c2ccccc2)C1",
    "IC50, nM": 560
  }
]

Now consider a different molecule.
Quick one: IC50 for O=C(NO)[C@H]1CC2(CC2)CN[C@@H]1C(=O)N1CCC(c2ccccc2)CC1 ?
140

Data origin, for the record: BindingDB's records for doi:10.1021/jm061344o
